- assay.comment: Selectivity ratio of Ki for sigma 2 receptor in rat liver homogenates to sigma 1 receptor in guinea pig brain homogenates
- Assay type: tissue-based
Give Ratio Ki for every item shown.

// query Ratio Ki value for entry Cc1ccc(S(=O)(=O)OCC2OC3(CCN(Cc4ccccc4)CC3)c3ccccc32)cc1 (centres undefined)
> 345

// query Ratio Ki value for entry FCCCC1OC2(CCN(Cc3ccccc3)CC2)c2ccccc21 (centres undefined)
620

// query Ratio Ki value for entry CC1OC2(CCN(C(C)c3ccccc3)CC2)c2ccccc21 (centres undefined)
90

// query Ratio Ki value for entry CC1OC2(CCN(Cc3ccc(F)cc3)CC2)c2ccccc21 (centres undefined)
841

// query Ratio Ki value for entry FCCC1OC2(CCN(Cc3ccccc3)CC2)c2ccccc21 (centres undefined)
1330

// query Ratio Ki value for entry FCCCCC1OC2(CCN(Cc3ccccc3)CC2)c2ccccc21 (centres undefined)
422

// query Ratio Ki value for entry FCC1OC2(CCN(Cc3ccc(F)cc3)CC2)c2ccccc21 (centres undefined)
636

// query Ratio Ki value for entry FCC1OC2(CCN(Cc3ccccc3)CC2)c2ccccc21 (centres undefined)
743

// query Ratio Ki value for entry CC(c1ccccc1)N1CCC2(CC1)OC(CF)c1ccccc12 (centres undefined)
> 275

---

- assay.comment: Chemical stability of the compound in 0.01 M Tris-HCl at pH 7.4 assessed as compound remaining after 2 hrs by radio-HPLC/TLC analysis
- Type: physicochemical
- measurement.context: read-out: Stability
quantity.measured: remaining at 2 h (%)
Give a bare numeral; the unit % is implied.

// query remaining at 2 h value for entry [18F]CCCCC1OC2(CCN(Cc3ccccc3)CC2)c2ccccc21 (centres undefined)
95.4

// query remaining at 2 h value for entry [18F]CC1OC2(CCN(Cc3ccccc3)CC2)c2ccccc21 (centres undefined)
100

// query remaining at 2 h value for entry [18F]CCC1OC2(CCN(Cc3ccccc3)CC2)c2ccccc21 (centres undefined)
97.6

---

- Test system: Femur
- assay.comment: Biodistribution in CD1 mouse flushed femur at 300 kBq, iv after 120 mins by gamma counting
- Assay type: ADME, organism-based
- measurement.context: in vivo, 2 h
quantity.measured: Drug uptake

> print(dat)
                                   compound     reported
1  [18F]CC1OC2(CCN(Cc3ccccc3)CC2)c2ccccc21 (centres undefined)  1.29 % ID/g
2  [18F]CCC1OC2(CCN(Cc3ccccc3)CC2)c2ccccc21 (centres undefined)       Active
3  [18F]CCCC1OC2(CCN(Cc3ccccc3)CC2)c2ccccc21 (centres undefined)       Active
4  [18F]CCCCC1OC2(CCN(Cc3ccccc3)CC2)c2ccccc21 (centres undefined)       Active

---

- Tested on: Brain
- assay.comment: Biodistribution in CD1 mouse brain at 300 kBq, iv after 5 mins by gamma counting
- Type: ADME, organism-based
- measurement.context: in vivo
quantity.measured: Drug uptake

> print(dat)
                                   compound  quantity.measured     reported
1  [18F]CCCC1OC2(CCN(Cc3ccccc3)CC2)c2ccccc21 (centres undefined)        Drug uptake       Active
2  [18F]CC1OC2(CCN(Cc3ccccc3)CC2)c2ccccc21 (centres undefined)        Drug uptake  7.15 % ID/g
3  [18F]CCC1OC2(CCN(Cc3ccccc3)CC2)c2ccccc21 (centres undefined)        Drug uptake       Active
4  [18F]CCCCC1OC2(CCN(Cc3ccccc3)CC2)c2ccccc21 (centres undefined)        Drug uptake       Active

---

- assay.comment: Metabolic stability in Wistar rat liver microsomes assessed as compound remaining at 320 uM after 30 mins by HPLC analysis
- Assay type: ADME, Microsome
- measurement.context: read-out: Stability
quantity.measured: remaining at 0.5 h, 320 µM (%)
Give a bare numeral; the unit % is implied.

// query remaining at 0.5 h, 320 µM value for entry FCCCC1OC2(CCN(Cc3ccccc3)CC2)c2ccccc21 (centres undefined)
38

// query remaining at 0.5 h, 320 µM value for entry FCC1OC2(CCN(Cc3ccccc3)CC2)c2ccccc21 (centres undefined)
20

// query remaining at 0.5 h, 320 µM value for entry FCCCCC1OC2(CCN(Cc3ccccc3)CC2)c2ccccc21 (centres undefined)
45

// query remaining at 0.5 h, 320 µM value for entry FCCC1OC2(CCN(Cc3ccccc3)CC2)c2ccccc21 (centres undefined)
13

---

Give Ki for every item shown.
- system: 3-beta-hydroxysteroid-Delta(8),Delta(7)-isomerase (Homo sapiens, UniProt Q15125)
- Sequence (Q15125 whole entry): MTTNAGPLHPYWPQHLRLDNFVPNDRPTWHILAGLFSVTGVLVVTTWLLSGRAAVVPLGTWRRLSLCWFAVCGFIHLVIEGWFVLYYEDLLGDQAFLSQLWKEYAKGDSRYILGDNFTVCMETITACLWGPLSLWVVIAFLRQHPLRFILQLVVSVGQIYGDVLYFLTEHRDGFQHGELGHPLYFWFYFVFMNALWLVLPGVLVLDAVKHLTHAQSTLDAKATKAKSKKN
- assay.comment: Binding affinity to EBP
Give a bare numeral; the unit nM is implied.

// query Ki value for entry FCCC1OC2(CCN(Cc3ccccc3)CC2)c2ccccc21 (stereo not drawn)
211

// query Ki value for entry FCCCCC1OC2(CCN(Cc3ccccc3)CC2)c2ccccc21 (stereo not drawn)
233

// query Ki value for entry FCCCC1OC2(CCN(Cc3ccccc3)CC2)c2ccccc21 (stereo not drawn)
455
